system: β-lactamase FRI-1; experiment: Kinetic parameters of purified FRI-1 (spectrophotometric hydrolysis); assay type: biochemical, Enterobacter cloacae; conditions: purified FRI-1, β-lactam as substrate
// Kcat lookup, one value per entry
EXPERIMENTAL_READOUT: Kcat

In [3]: df
Out[3]:
                                   compound       study_target   measurement
0  C[C@@H](O)[C@H]1C(=O)N2C(C(=O)O)=C(S[C@@H]3CN[C@H](C(=O)N(C)C)C3)[C@H](C)[C@H]12  β-lactamase FRI-1        45 s⁻¹
1  CO/N=C(\C(=O)N[C@@H]1C(=O)N2C(C(=O)[O-])=C(C[N+]3(C)CCCC3)CS[C@H]12)c1csc(N)n1 [Cefepime]  β-lactamase FRI-1        28 s⁻¹
2  CC1(C)S[C@@H]2[C@H](NC(=O)[C@H](C(=O)O)c3ccsc3)C(=O)N2[C@H]1C(=O)O  β-lactamase FRI-1       120 s⁻¹
3  CC1(C)S[C@@H]2[C@H](NC(=O)Cc3ccccc3)C(=O)N2[C@H]1C(=O)O  β-lactamase FRI-1  1,060 sec^−1
4  C[C@@H](O)[C@H]1C(=O)N2C(C(=O)O)=C(S[C@@H]3CN[C@H](C(=O)Nc4cccc(C(=O)O)c4)C3)[C@H](C)[C@H]12  β-lactamase FRI-1       150 s⁻¹
